Measured Population Membrane Permeable-Phenotype (%) of individual entries
Test system: HEK-293T
assayInfo: Multiplex assay against HEK293T
Type: toxicity, cell-based
conditionInfo: human, 48 h, 1 µM, compound concentration 1 uM, number of replicates 2

1) CN1CCN(C(=O)Cc2ccc(N/C(=C3\C(=O)Nc4cc(Cl)ccc43)c3ccccc3)cc2)CC1 ... 3%

Look at this molecule and give its reported Population Membrane Permeable-Phenotype (%). `CN(C)C/C=C/C(=O)Nc1cccc(S(=O)(=O)N2CCC(NC(=O)c3n[nH]cc3NC(=O)c3c(Cl)cc(Cl)cc3Cl)CC2)c1`
1%

Requested field: Population Membrane Permeable-Phenotype (%). Item: `CC(=O)N(CCN(C)C)c1ccc(N/C(=C2\C(=O)Nc3cc(Cl)ccc32)c2ccccc2)cn1`
3%

Look up Population Membrane Permeable-Phenotype (%) for this molecule: `Cn1cc(-c2ccc(N(C(=O)NCc3ccccc3)[C@H]3CC[C@H](Nc4ccc(C#N)cn4)CC3)cc2)ccc1=O`
6%

---

Test system: Fibroblast
assayInfo: Multiplex assay against human fibroblast
Type: toxicity, cell-based
conditionInfo: 24 h, 1 µM, compound concentration 1 uM, number of replicates 2
measure: Population Normal (%)
Quick reminder: number only, in %, skip the unit.

// query Population Normal (%) value for entry `O=C1CCCN1CCNc1nc(Nc2ccc(Cl)c(Cl)c2)ncc1C(F)(F)F`
100

So what does the record say about Population Normal (%) for `Cn1c(Nc2c(Cl)cccc2Cl)nc2ccc3nc[nH]c(=O)c3c21` ?
100

Entry `CN(C)C/C=C/C(=O)Nc1cccc(S(=O)(=O)N2CCC(NC(=O)c3n[nH]cc3NC(=O)c3c(Cl)cc(Cl)cc3Cl)CC2)c1` : reported Population Normal (%) = ?
100

Consider the compound `O=S(=O)(c1ccccc1)N(CC(F)(F)F)c1ccc(C(O)(C(F)(F)F)C(F)(F)F)cc1` and give its measured Population Normal (%).
100

For the compound `Cc1cc(-c2cnc(N)c3c(-c4ccc5scnc5c4)csc23)n(C)n1` , what Population Normal (%) is on record?
100

Can you look up the measured Population Normal (%) of Br.Oc1cc2c(cc1O)C(c1ccccc1)CNCC2 (centres undefined) for me?
100

// returns reported Population Normal (%) for input CCC(=O)O[C@@H](OP(=O)(CCCCc1ccccc1)CC(=O)N1C[C@H](C2CCCCC2)C[C@H]1C(=O)[O-])C(C)C.[Na+] (some centres undefined)
100

Query: Population Normal (%); subject: `CN1CCN(C(=O)Cc2ccc(N/C(=C3\C(=O)Nc4cc(Cl)ccc43)c3ccccc3)cc2)CC1`
100

---

Reported Population Fragmented Nuclei (%) values for the following compounds.
Test system: Fibroblast
assayInfo: Multiplex assay against human fibroblast
Format: toxicity, cell-based
conditionInfo: 24 h, 10 µM, compound concentration 10 uM, number of replicates 2
Response body: numeric value in %, unit text excluded.

Use these answered entries as a reference point.
1. COC(=O)c1ccc2c(c1)NC(=O)/C2=C(\Nc1ccc(-c2nccn2C)cc1)c1ccccc1 ... 24
2. N[C@@H]1c2cccnc2[C@H](OC(=O)N2CCC(n3c(=O)[nH]c4ncccc43)CC2)CC[C@H]1c1cccc(F)c1F ... 12
3. Cc1cc(-c2cnc(N)c3c(-c4ccc5scnc5c4)csc23)n(C)n1 ... 27
4. Cn1cc(-c2ccc(N(C(=O)NCc3ccccc3)[C@H]3CC[C@H](Nc4ccc(C#N)cn4)CC3)cc2)ccc1=O ... 10

// returns reported Population Fragmented Nuclei (%) for input `CS(=O)(=O)c1ccc(C(=O)Nc2ccc(F)c(COc3ccc(Br)cc3CN3CC[C@H](O)C3)c2)c(Cl)c1.O=CO`
15
